The origin of these recorded values is ChEMBL document CHEMBL1201862.

Property: GI50; scope: individual compounds
- Tested on: SK-MEL-28
- assay_info: NCI tumour cell line growth inhibition, 48 h
Calls of active or inactive are those of the source. Cut-off read from the data, not from the text of the source: active = GI50 up to about 1.1 µM and inactive = higher.

compound: C/C1=C\CC[C@@]2(C)O[C@@H]2[C@H]2OC(=O)C(C)C2C[C@H]1O (some centres not stated)
experimental_target: SK-MEL-28
GI50: > 100 µM (inactive)
--
compound: O=C1NC(Nc2ccccc2Cl)=N/C1=C\c1c(Cl)cccc1Cl
experimental_target: SK-MEL-28
GI50: 51.8 µM (inactive)
--
compound: O=C1c2ccccc2C(=O)c2c1ccc(C1C(=O)c3ccccc3C1=O)c2-c1c(C2C(=O)c3ccccc3C2=O)ccc2c1C(=O)c1ccccc1C2=O
experimental_target: SK-MEL-28
GI50: > 100 µM (inactive)
--
compound: Cc1ccc(NCC2(/N=C/c3ccccc3)OC(CO)C(O)C2O)cc1 (configuration not stated)
experimental_target: SK-MEL-28
GI50: 62.5 µM (inactive)
--
compound: CCCC(CCC)C(=O)O
experimental_target: SK-MEL-28
GI50: > 100 µM (inactive)
--
compound: CCOC(=O)c1csc(CCCCCCc2nc(C(=O)OCC)cs2)n1
experimental_target: SK-MEL-28
GI50: > 38.3 µM (inactive)
--
compound: OC1(c2ccccc2)C2CC=CC2C1(c1ccccc1)c1ccccc1 (configuration not stated)
experimental_target: SK-MEL-28
GI50: 40.1 µM (inactive)
--
compound: CCOC(=O)/C(C(=O)Nc1cccc(Cl)c1)=C(/N)N1CCCC1
experimental_target: SK-MEL-28
GI50: > 100 µM (inactive)
--
compound: CC(C)=CCc1c2c(c(O)c3c(=O)c4c(oc13)-c1ccc(O)cc1OC4C=C(C)C)C=CC(C)(C)O2 (configuration not stated)
experimental_target: SK-MEL-28
GI50: 14.6 µM (inactive)
--
compound: Cc1ccccc1NC(=O)C(=O)C(C#N)c1ccccc1C (configuration not stated)
experimental_target: SK-MEL-28
GI50: > 100 µM (inactive)
--
compound: COc1ccc(/C=C2/CSCC3=C2N=C(S)NC3c2ccc(OC)c(OC)c2OC)c(OC)c1OC (configuration not stated)
experimental_target: SK-MEL-28
GI50: 18.4 µM (inactive)
--
compound: O=C(O)c1nc2ccc(Cl)cc2[nH]c1=O
experimental_target: SK-MEL-28
GI50: > 100 µM (inactive)
--
compound: CN1c2ccccc2C2=C(c3ccccc3)CC[C@@H](C(=O)N3C4CC5CC[C@@]4(CS3(=O)=O)C5(C)C)[C@@H]21 (some centres not stated)
experimental_target: SK-MEL-28
GI50: > 100 µM (inactive)
--
compound: O=C1C=C(C2=C(C3=CC(=O)c4ccccc4C3=O)C(=O)c3ccccc3C2=O)C(=O)c2ccccc21
experimental_target: SK-MEL-28
GI50: 14 µM (inactive)
--
compound: NCc1ccc(-c2ccc(CN)s2)s1
experimental_target: SK-MEL-28
GI50: > 100 µM (inactive)
--
compound: O=C1NC(=S)NC(=O)C1=Cc1ccc2ccccc2n1
experimental_target: SK-MEL-28
GI50: > 100 µM (inactive)
--
compound: COC1=C(OC)C(=O)C(Cc2c(Cl)nc3sccn23)=C(C)C1=O
experimental_target: SK-MEL-28
GI50: 12 µM (inactive)

---

- Test system: DLD-1
- assay_info: NCI tumour cell line growth inhibition, 48 h
The source made the active and inactive calls. Rule as the data show it: active = GI50 up to about 1.1 µM and inactive = higher.
GI50 listing for selected compounds.
property_name: GI50

compound: N#CC(C#N)SCc1ccccc1
assay_result: 36.6 µM (inactive)
//
compound: CCOC(=O)c1csc(CCCCCCc2nc(C(=O)OCC)cs2)n1
assay_result: > 61.4 µM (inactive)
//
compound: O=C1C2C(C(=O)N1c1ccccc1)C1c3ccccc3C2C2C(=O)N(c3ccccc3)C(=O)C21 (centres undefined)
assay_result: 2.73 µM (inactive)
//
compound: BrC12C3C4C5C(C(C43)C13OCCO3)C52 (centres undefined)
assay_result: > 100 µM (inactive)
